Biological target: T1, interleukin 18 binding protein (IL-18BP) (UniProt O95998 31-194)
T1 sequence (looked up): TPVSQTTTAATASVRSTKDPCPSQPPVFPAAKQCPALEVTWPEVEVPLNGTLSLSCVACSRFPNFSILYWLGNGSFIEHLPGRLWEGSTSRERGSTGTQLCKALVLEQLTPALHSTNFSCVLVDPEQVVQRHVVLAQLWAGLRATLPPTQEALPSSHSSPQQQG
Assay: cell-based or functional assay
reported_metric: Ratio (-BP/+BP), DF-1,000,000
// response body must contain only the number

// known answers, use as guide
binder | Ratio (-BP/+BP), DF-1,000,000
IL-18 variant K53G, S55P, R104K, H109Y (ligand) YFGKLESKLSVIRNLNDQVLFIDQGNRPLFEDMTDSDMRDNAPRTIFIISMYGDPQPRGMAVTISVKSEKISTLSSENKIISFKEMNPPDNIKDTKSDIIFFQKSVPGYDNKMQFESSSYEGYFLASEKERDLFKLILKKEDELGDRSIMFTVQNED | 1.2
IL-18 variant K53D, S55Q, P107M (ligand) YFGKLESKLSVIRNLNDQVLFIDQGNRPLFEDMTDSDMRDNAPRTIFIISMYDDQQPRGMAVTISVKSEKISTLSSENKIISFKEMNPPDNIKDTKSDIIFFQRSVMGHDNKMQFESSSYEGYFLASEKERDLFKLILKKEDELGDRSIMFTVQNED | 1.02
IL-18 variant S36W, D37E, D40F, N41I, K53D, S55N (ligand) YFGKLESKLSVIRNLNDQVLFIDQGNRPLFEDMTDWEMRFIAPRTIFIISMYDDNQPRGMAVTISVKSEKISTLSSENKIISFKEMNPPDNIKDTKSDIIFFQRSVPGHDNKMQFESSSYEGYFLASEKERDLFKLILKKEDELGDRSIMFTVQNED | 1.05
IL-18 variant D23G, K53Y, S55Y (ligand) YFGKLESKLSVIRNLNDQVLFIGQGNRPLFEDMTDSDMRDNAPRTIFIISMYYDYQPRGMAVTISVKSEKISTLSSENKIISFKEMNPPDNIKDTKSDIIFFQRSVPGHDNKMQFESSSYEGYFLASEKERDLFKLILKKEDELGDRSIMFTVQNED | 1.13
IL-18 variant T34N, S36N, D40E, N41G, K53S, S55Q, R104N, H109Y (ligand) YFGKLESKLSVIRNLNDQVLFIDQGNRPLFEDMNDNDMREGAPRTIFIISMYSDQQPRGMAVTISVKSEKISTLSSENKIISFKEMNPPDNIKDTKSDIIFFQNSVPGYDNKMQFESSSYEGYFLASEKERDLFKLILKKEDELGDRSIMFTVQNED | 0.95
IL-18 variant T34S, S36L, D37E, D40Y, N41M, K53T, S55K, P107K, H109Q (ligand) YFGKLESKLSVIRNLNDQVLFIDQGNRPLFEDMSDLEMRYMAPRTIFIISMYTDKQPRGMAVTISVKSEKISTLSSENKIISFKEMNPPDNIKDTKSDIIFFQRSVKGQDNKMQFESSSYEGYFLASEKERDLFKLILKKEDELGDRSIMFTVQNED | 0.98

# ---- query binder ----
Qu. For the binder IL-18 variant K53D, S55T, H109I (ligand) YFGKLESKLSVIRNLNDQVLFIDQGNRPLFEDMTDSDMRDNAPRTIFIISMYDDTQPRGMAVTISVKSEKISTLSSENKIISFKEMNPPDNIKDTKSDIIFFQRSVPGIDNKMQFESSSYEGYFLASEKERDLFKLILKKEDELGDRSIMFTVQNED , what Ratio (-BP/+BP), DF-1,000,000 is on record?
Ans. 0.98
